These data points were gathered from PubChem BioAssay (NCI).

System: HCC-2998 colon
Experimental Protocol: NCI-60 one-dose screen, 48 h
Condition Context: 10 µM unless noted
This is part of a sample that, as a whole, favours compounds with a hit. Of some 83,000 tested, about 20% had one in any assay. The source made the active and inactive calls. Rule for the calls: active = growth percent below 10; inactive = the rest.
Just give me one of these, please: Yes = active, No = inactive

Prompt: Given CCOc1ncc([N+](=O)[O-])c(OCC)n1 , state the outcome it received in this test.
Response: No

Prompt: Given Cc1cccc(N=Nc2cccc(C)c2)c1 , state the outcome it received in this test.
Response: No

Prompt: Given C=CCn1cc(-c2nc3ccccc3s2)c2cc(-c3ccc4c5c(cccc35)C(=O)N(CCO)C4=O)ccc21 , state the outcome it received in this test.
Response: No

Prompt: Given O=C(CCCCCCCC(=O)N1CCCCC1)N1CCCCC1 , state the outcome it received in this test.
Response: No

Prompt: Given Cc1cc(C(=O)CCCC(=O)c2cc(C)c(O)c(C)c2)cc(C)c1O , state the outcome it received in this test.
Response: No

Prompt: Given COCCn1cc(-c2csc(-c3c[nH]c4ccc(F)cc34)n2)c2cccnc21 , state the outcome it received in this test.
Response: No

Prompt: Given C=CC(CC(c1ccccc1)(c1ccccc1)c1ccccc1)N(CC)CC (centres undefined) , state the outcome it received in this test.
Response: No

Prompt: Given Cn1cc(-c2csc(-c3cn(CCCN4CCOCC4)c4ccc(F)cc34)n2)c2cccnc21 , state the outcome it received in this test.
Response: No

Prompt: Given C[C@H](c1nc2ccc(C#N)cc2[nH]1)[C@H]1CC[C@H]2[C@@H]3CCC4=CC(=O)CC[C@]4(C)[C@H]3CC[C@]12C , state the outcome it received in this test.
Response: No

Prompt: Given COc1cc2c(cc1OCCCN1CCN(C(=S)SCCC(C#N)(c3ccccc3)c3ccccc3)CC1)N=C[C@@H]1CCCN1C2=O , state the outcome it received in this test.
Response: Yes

Prompt: Given COc1cc(N2C(=O)[C@H](Cl)C2c2ccc(SC)cc2)cc(OC)c1OC (some centres undefined) , state the outcome it received in this test.
Response: Yes

Prompt: Given COc1cc(OC)c2c(=O)c3c(CC=C(C)C)cc(OC)c(O)c3oc2c1 , state the outcome it received in this test.
Response: No

Prompt: Given O=C(C[C@]1(O)C(=O)Nc2ccc(Br)cc21)c1ccco1 , state the outcome it received in this test.
Response: No

Prompt: Given C#CCOc1ccc2nc(CCl)c(Cl)c(Nc3cccc(C(F)(F)F)c3)c2c1 , state the outcome it received in this test.
Response: No

Prompt: Given O=C(NCCCCO)c1cncnc1Nc1ccc2c(ccn2Cc2cccc(F)c2)c1 , state the outcome it received in this test.
Response: No

Prompt: Given O=C(O)CC(C(=O)O)/C(=C\c1ccccc1)c1ccccc1 (centres undefined) , state the outcome it received in this test.
Response: No

Prompt: Given Nc1nc2ccccc2c2c(=O)c3cc(Cl)ccc3sc12 , state the outcome it received in this test.
Response: No

Prompt: Given CC(C)CCC[C@@H](C)[C@H]1CC[C@H]2[C@@H]3CC=C4c5sc(Nc6cc(C(F)(F)F)cc(C(F)(F)F)c6)nc5CC[C@]4(C)[C@H]3CC[C@]12C , state the outcome it received in this test.
Response: No

Prompt: Given COc1ccc2c(c1)C(C)Cc1c(ncnc1-n1cnc3cc(C)ccc31)N2C (centres undefined) , state the outcome it received in this test.
Response: No

Prompt: Given c1csc(-c2cn3nc(-c4c[nH]c5ccccc45)sc3n2)c1 , state the outcome it received in this test.
Response: No

Prompt: Given O=C(NCCCCCCNC(=O)OCc1ccc2c(Cl)cc(Cl)c(O)c2n1)OCc1ccc2c(Cl)cc(Cl)c(O)c2n1 , state the outcome it received in this test.
Response: Yes

Prompt: Given CCn1cc(Cc2cc(C(=O)Nc3cc4cc(OC)c(OC)cc4c(C)n3)ccc2Cl)cn1 , state the outcome it received in this test.
Response: No

Prompt: Given CCCCCc1ccc(S(=O)(=O)Nc2ccc3nc(N)oc3c2)cc1 , state the outcome it received in this test.
Response: No

Prompt: Given CC(=O)c1ccc(-n2cc(CN3CCN(c4cc5c(cc4F)c(=O)c(C(=O)O)cn5C4CC4)CC3)nn2)cc1 , state the outcome it received in this test.
Response: No

Prompt: Given Cc1c2cnccc2c(C)c2c1c1cc(CO)ccc1n2C , state the outcome it received in this test.
Response: Yes

Prompt: Given C=C1SC(=Nc2ccccc2Cl)N(C(=O)c2sc3ccccc3c2Cl)C1(C)C , state the outcome it received in this test.
Response: No

Prompt: Given Cc1ccc(S(=O)(=O)c2nc(-c3ccccc3)oc2SCC(N)=O)cc1 , state the outcome it received in this test.
Response: No

Prompt: Given CCN1CCN(CCNc2nccc(-c3c(-c4ccc(F)c(O)c4)nc4occn34)n2)S1(=O)=O , state the outcome it received in this test.
Response: No

Prompt: Given COc1ccc(-c2cc(-c3cn(-c4cccc(Cl)c4)nc3-c3ccc(OC)cc3)on2)cc1 , state the outcome it received in this test.
Response: No

Prompt: Given COC(=O)[C@@]1(C)CC[C@]2(C)CC[C@]3(C)C4=CC=C5C(=CC(=O)C(O)=C5C)[C@]4(C)[C@@H](O)C[C@@]3(C)[C@@H]2C1 , state the outcome it received in this test.
Response: No

Prompt: Given C#CCOc1cccc(Nc2ncnc3cc(NC(=O)CCl)ccc23)c1 , state the outcome it received in this test.
Response: Yes

Prompt: Given Fc1cccc(-c2nc(-c3c[nH]c4ncccc34)cs2)c1 , state the outcome it received in this test.
Response: No

Prompt: Given CCOC(=O)c1cnn(CC(C)O)c1NC(=O)NCc1ccccc1C(F)(F)F (centres undefined) , state the outcome it received in this test.
Response: No

Prompt: Given COc1cc(/C=C/c2cn[nH]c2-c2ccc(C)cc2)cc(OC)c1OC , state the outcome it received in this test.
Response: No

Prompt: Given COc1ccc(C2CC(n3ccnc3)c3cc(OC)c(OC)c(OC)c32)cc1O (centres undefined) , state the outcome it received in this test.
Response: No

Prompt: Given COC(=O)/C=C1/SC(=Nc2ccc(F)cc2)N(CCc2c[nH]c3ccc(O)cc23)C1=O , state the outcome it received in this test.
Response: No

Prompt: Given CCOC(=O)NC(=S)n1oc(=O)c2ccccc21 , state the outcome it received in this test.
Response: No

Prompt: Given C=C(C)[C@@H]1CC[C@]2(C)[C@H](C=CC3=C4C[C@@](C)(CO)CC[C@]4(C)CC[C@]32C)[C@@]1(C)CCCN , state the outcome it received in this test.
Response: Yes

Prompt: Given Nc1cc(-c2ccc(Cl)cc2)nn1-c1nnc(/C=C/c2ccco2)c(=O)[nH]1 , state the outcome it received in this test.
Response: No
